System Under Test: T1, human GPC3 on CHO-K1-human GPC3 cells (clone CHOK1-hGPC3.2B5) (human, UniProt P51654 25-554)
T1 construct: whole, on cells; Stably transfected CHO-K1 clone 2B5
Experiment: FACS on CHOK1-hGPC3.2B5 cells;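 further: flow cytometry binding of chimeric antibodies to the cells, read out as mean fluorescence intensity, with the half-maximal concentration derived by curve fitting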
Quantity: EC50 (nM)
Quick reminder: number only, in nM, skip the unit.

Supply EC50 value. Item: F1.3.9 human-murine chimeric antibody (antibody, human IgG1, kappa, V domains shown) VH: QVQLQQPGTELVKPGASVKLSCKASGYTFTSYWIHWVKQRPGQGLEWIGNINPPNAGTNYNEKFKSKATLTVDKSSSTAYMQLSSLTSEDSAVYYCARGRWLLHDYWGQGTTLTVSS VL: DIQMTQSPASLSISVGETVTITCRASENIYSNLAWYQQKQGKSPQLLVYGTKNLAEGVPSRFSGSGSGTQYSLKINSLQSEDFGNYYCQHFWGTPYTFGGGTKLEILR 2.78

Kindly indicate its recorded EC50. Item: F1.21.8 human-murine chimeric antibody (antibody, human IgG1, kappa, V domains shown) VH: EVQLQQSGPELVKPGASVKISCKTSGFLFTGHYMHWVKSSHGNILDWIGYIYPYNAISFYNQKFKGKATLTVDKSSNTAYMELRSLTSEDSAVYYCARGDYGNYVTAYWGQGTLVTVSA VL: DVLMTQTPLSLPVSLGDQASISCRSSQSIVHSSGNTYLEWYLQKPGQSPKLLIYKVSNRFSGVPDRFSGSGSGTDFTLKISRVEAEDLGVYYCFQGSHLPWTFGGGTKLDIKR 0.68

FYI, the data here is from patent US20260116991A1.
